Experiment: Pharmacokinetic test in mice after gavage administration
Assay type: in vivo
Details: mouse, 10 mg/kg, ICR mice, male, Oral (10 mg/mL), plasma, read-out: Half-life period T½ (converted)
Description: Control Compound AMG650, Compound 9; ICR mice, male, 27.3-30.3 g, purchased from Charles River Experimental Animal Technology Co., Ltd. […] ICR mice, each compound injection group (9 mice in each group) to be determined, were fasted overnight, fed was given 4 hours after gavage administration (PO, the dosage of the compound was 10 mg/kg, the dosage volume was 10 mL/kg). […]
RECORDED_ENDPOINT: half-life (h)
Respond numerically; units are h and should not be typed.

Look up half-life: CCS(=O)(=O)Nc1ccc(C(=O)Nc2ccc(OC)c(N3CCC(F)(F)CC3)c2)c(N2CCC3(CC2)CC3)c1 [Example 9]
5.9

----------
assay: Pharmacokinetic test in mice after gavage administration; assay type: in vivo; details: mouse, 10 mg/kg, ICR mice, male, Oral (10 mg/mL), plasma, read-out: Blood concentration Cmax
RECORDED_ENDPOINT: Cmax (ng/mL)
Respond numerically; units are ng/mL and should not be typed.

Look up Cmax: CCS(=O)(=O)Nc1ccc(C(=O)Nc2ccc(OC)c(N3CCC(F)(F)CC3)c2)c(N2CCC3(CC2)CC3)c1
5270

----------
assay: Pharmacokinetic test in mice after gavage administration; assay type: in vivo; conditions: mouse, 10 mg/kg, ICR mice, male, Oral (10 mg/mL), plasma, read-out: Curve area AUC0-∞
RECORDED_ENDPOINT: AUC(0-inf) (ng·h/mL)
Respond numerically; units are ng·h/mL and should not be typed.

Look up AUC(0-inf): CCS(=O)(=O)Nc1ccc(C(=O)Nc2ccc(OC)c(N3CCC(F)(F)CC3)c2)c(N2CCC3(CC2)CC3)c1 [Example 9]
52200

----------
target: recombinant human KIF18A enzyme (Homo sapiens, UniProt Q8NI77); experiment: Inhibition of KIF18A enzyme activity (ADP-Glo); conditions: recombinant human KIF18A protein 100 nM, ATP 60 uM, read-out: IC50 inhibiting KIF18A enzyme activity
Sequence (Q8NI77 whole entry): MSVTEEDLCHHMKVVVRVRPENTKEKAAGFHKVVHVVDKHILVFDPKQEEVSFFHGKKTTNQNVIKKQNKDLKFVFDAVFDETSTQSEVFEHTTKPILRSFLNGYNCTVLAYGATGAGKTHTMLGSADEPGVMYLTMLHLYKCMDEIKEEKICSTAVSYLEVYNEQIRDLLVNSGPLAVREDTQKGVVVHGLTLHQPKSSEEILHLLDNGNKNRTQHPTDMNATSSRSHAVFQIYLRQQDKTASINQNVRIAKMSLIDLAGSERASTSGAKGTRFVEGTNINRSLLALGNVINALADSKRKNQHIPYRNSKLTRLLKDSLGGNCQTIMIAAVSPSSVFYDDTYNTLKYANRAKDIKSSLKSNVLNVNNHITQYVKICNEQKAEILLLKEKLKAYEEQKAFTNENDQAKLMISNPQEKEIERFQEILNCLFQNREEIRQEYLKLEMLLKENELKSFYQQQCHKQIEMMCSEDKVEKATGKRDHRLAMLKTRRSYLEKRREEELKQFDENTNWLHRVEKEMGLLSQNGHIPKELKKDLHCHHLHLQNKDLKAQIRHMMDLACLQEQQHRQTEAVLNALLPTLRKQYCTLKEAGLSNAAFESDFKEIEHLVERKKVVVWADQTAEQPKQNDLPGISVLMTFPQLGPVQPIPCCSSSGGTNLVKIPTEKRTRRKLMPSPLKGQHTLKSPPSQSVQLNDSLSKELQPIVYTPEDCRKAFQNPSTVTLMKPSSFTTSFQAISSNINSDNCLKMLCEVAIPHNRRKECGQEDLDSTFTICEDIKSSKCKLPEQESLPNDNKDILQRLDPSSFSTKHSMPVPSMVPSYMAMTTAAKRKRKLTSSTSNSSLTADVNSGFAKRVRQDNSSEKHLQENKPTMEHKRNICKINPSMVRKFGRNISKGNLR
Sequence (P68363 whole entry partner): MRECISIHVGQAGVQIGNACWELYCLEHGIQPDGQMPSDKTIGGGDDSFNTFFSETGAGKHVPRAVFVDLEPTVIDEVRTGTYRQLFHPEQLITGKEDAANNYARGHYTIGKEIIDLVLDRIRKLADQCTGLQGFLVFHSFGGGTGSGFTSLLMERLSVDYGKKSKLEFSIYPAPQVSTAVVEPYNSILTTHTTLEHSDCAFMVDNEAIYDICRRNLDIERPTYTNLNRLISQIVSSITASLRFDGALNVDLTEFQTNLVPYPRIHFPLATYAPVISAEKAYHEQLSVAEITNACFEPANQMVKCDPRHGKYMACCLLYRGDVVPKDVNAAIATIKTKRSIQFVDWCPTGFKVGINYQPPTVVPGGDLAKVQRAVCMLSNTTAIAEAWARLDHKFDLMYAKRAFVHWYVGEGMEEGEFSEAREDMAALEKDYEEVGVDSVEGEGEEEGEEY
Sequence (P07437 whole entry partner): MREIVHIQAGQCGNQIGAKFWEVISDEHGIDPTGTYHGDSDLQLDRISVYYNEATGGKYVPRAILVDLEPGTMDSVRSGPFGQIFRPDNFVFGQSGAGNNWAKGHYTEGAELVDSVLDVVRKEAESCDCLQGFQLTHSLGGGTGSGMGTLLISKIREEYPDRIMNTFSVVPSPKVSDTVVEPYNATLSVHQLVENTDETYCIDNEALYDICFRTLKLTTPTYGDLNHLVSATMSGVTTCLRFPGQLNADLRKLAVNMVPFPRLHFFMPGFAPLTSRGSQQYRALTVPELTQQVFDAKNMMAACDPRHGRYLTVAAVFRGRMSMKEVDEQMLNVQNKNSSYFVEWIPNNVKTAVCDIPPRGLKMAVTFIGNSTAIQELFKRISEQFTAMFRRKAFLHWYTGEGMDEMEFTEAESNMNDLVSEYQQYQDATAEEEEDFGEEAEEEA
RECORDED_ENDPOINT: IC50 (nM)
Respond numerically; units are nM and should not be typed.

Look up IC50: CCS(=O)(=O)Nc1ccc(C(=O)Nc2ccc(OC(F)(F)F)c(N3CCC(F)(F)CC3)c2)c(N2CCC3(CC2)CC3)c1 [Example 13]
137

Next record, please: CCS(=O)(=O)Nc1ccc(C(=O)Nc2ccc(OC)c(CN3CC(F)(F)C3)c2)c(N2CCC3(CC2)CC3)c1 [Example 11]
145

Next record, please: CCS(=O)(=O)Nc1ccc(C(=O)Nc2ccc(C#N)c(N3CCC(F)(F)CC3)c2)c(N2CCC3(CC2)CC3)c1 [Example 8]
97.8

Next record, please: N#Cc1ccc(NC(=O)c2ccc(NS(=O)(=O)CCO)cc2N2CCC3(CC2)CC3)cc1N1CCC(F)(F)CC1 [Example 7]
177

Next record, please: CCS(=O)(=O)Nc1ccc(C(=O)Nc2ccc(OC)c(-c3ccc(F)cn3)c2)c(N2CCC3(CC2)CC3)c1 [Example 16]
185
